B1: FAM189A2 (parent)
chain: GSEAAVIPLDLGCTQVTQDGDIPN

variants of: B1; test: protein stability index of a GFP-peptide fusion (GPS, HEK-293T) (PSI 1-6); higher = more stable; settings: c terminus: a fixed tail appended;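 note: lentivirally expressed fusions sorted by FACS into six bins by GFP to DsRed ratio, PSI derived from sequencing read proportions per bin multiplied by bin number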
// reported protein stability index for each item listed

| var | protein stability index |
| --- | --- |
| V6G | 5.33 |
| A4S | 5.24 |
| P8E | 4.85 |
| E3R | 5.08 |
| T17C | 5.19 |
| S2C | 5.49 |
| N24R | 4.91 |
| T17W | 4.69 |
| G20Q | 4.75 |
| V6A | 5.5 |
| A5K | 5.19 |
| Q15H | 5.51 |
| T17D | 5.46 |
| V6R | 5.57 |
| V6C | 5.43 |
| I22S | 5.64 |
| T14R | 4.41 |
| P8D | 4.97 |
| G1Y | 4.26 |
| A4W | 4.53 |
| T17Q | 5.24 |
| E3C | 4.83 |
